Protocol Text: thallium flux activation in parental CHO cells, counter-screen for KCNQ1 potentiator project (AID 493006);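 for activation: fluorescence ratio of max minus min over baseline after K+ and Tl+ depolarization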
Condition Summary: parental CHO-K1 cells, FluxOR thallium flux, at 10 µM
Activity calls are given as the source filed them.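 Rule for the calls: active = duplicate-averaged activation above buffer control mean plus 5 SD of those controls; inactive = the rest.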
Returns: one label drawn from active, inactive

Example entries begin here.
Molecule | Class Label
COC(=O)c1ccc(NC(=S)NC(=O)c2cc(-c3ccccc3)nc3ccccc23)cc1 | active
O=C(CSc1nnc(SCc2cccc3ccccc23)s1)c1ccc2c(c1)OCO2 | active
Cc1ccc(N(C(=O)Cn2nnc(-c3ccccc3F)n2)C(C(=O)NC2CCCC2)c2ccncc2)cc1 (stereo not given) | inactive
C=CCNC(=S)Nc1sc2c(c1C(=O)OCC)CCN(C(=O)OCC)C2 | inactive

Task item: Could you check what this test reported for Cc1ccc(C)c(NC(=S)N/N=C2/CCCCc3ccccc32)c1 ?
Reply: active
